System: RXF 393
assay-name: NCI tumour cell line growth inhibition, 48 h
The source made the active and inactive calls. Cut-off read from the data, not from the text of the source: active = GI50 up to about 1.1 µM and inactive = higher.
Could you please pick one outcome from this set? active, inactive

The following compounds have reported results that may help.
compound: O=C(/C(=N\Nc1ccc([N+](=O)[O-])cc1[N+](=O)[O-])NC12CC3CC(CC(C3)C1)C2)C(Br)C(=O)c1ccccc1 (centres undefined)
study-target: RXF 393
group: inactive
//
compound: CC1(C)CC(=O)C2=C(C1)NC1=C(C(=O)CC(C)(C)C1)C2c1ccc([N+](=O)[O-])cc1
study-target: RXF 393
group: inactive
//
compound: C/C=C(/C)C(=O)O[C@H]1C[C@@H]2[C@@H](O)c3occ(C)c3C[C@]2(C)[C@@H](C)C1
study-target: RXF 393
group: inactive
//
compound: COc1cccc2c1CCc1cc3c(N)nc(N)nc3nc1-2
study-target: RXF 393
group: inactive
//
compound: O=C1CC(CC(O)C(O)C(O)CO)CC(=O)N1 (centres undefined)
study-target: RXF 393
group: inactive
//
compound: O=C(NCc1ccncc1)C1COc2cc(-c3cc(=O)c4ccccc4o3)ccc2O1 (centres undefined)
study-target: RXF 393
group: inactive
//
compound: Cc1c2oc3c(C)cc(F)c(C(=O)NC4C(=O)NC(C(C)C)C(=O)N5CCCC5C(=O)N(C)CC(=O)N(C)C(C(C)C)C(=O)OC4C)c3nc-2c(C(=O)NC2C(=O)NC(C(C)C)C(=O)N3CCCC3C(=O)N(C)CC(=O)N(C)C(C(C)C)C(=O)OC2C)c(N)c1=O (centres undefined)
study-target: RXF 393
group: active
//
compound: O=C1C=CC2(O[C@@H](Cc3ccccc3)[C@H](Cc3ccccc3)O2)C(SC(=O)c2ccccc2)C1 (some centres undefined)
study-target: RXF 393
group: active

Let us examine a further case.
Dear colleague, could you share the recorded outcome for CCCCCCCCCCCCCCCCOCC(COP(=O)([O-])OCC[N+](C)(C)C)OCCCCCCCCCCCCCCCC (centres undefined) when you have a moment?
inactive
